- Measured On: BTK (Homo sapiens)
- Construct: endogenous in cells; host or cells: Ramos cells
- Sequence (Q06187 whole entry): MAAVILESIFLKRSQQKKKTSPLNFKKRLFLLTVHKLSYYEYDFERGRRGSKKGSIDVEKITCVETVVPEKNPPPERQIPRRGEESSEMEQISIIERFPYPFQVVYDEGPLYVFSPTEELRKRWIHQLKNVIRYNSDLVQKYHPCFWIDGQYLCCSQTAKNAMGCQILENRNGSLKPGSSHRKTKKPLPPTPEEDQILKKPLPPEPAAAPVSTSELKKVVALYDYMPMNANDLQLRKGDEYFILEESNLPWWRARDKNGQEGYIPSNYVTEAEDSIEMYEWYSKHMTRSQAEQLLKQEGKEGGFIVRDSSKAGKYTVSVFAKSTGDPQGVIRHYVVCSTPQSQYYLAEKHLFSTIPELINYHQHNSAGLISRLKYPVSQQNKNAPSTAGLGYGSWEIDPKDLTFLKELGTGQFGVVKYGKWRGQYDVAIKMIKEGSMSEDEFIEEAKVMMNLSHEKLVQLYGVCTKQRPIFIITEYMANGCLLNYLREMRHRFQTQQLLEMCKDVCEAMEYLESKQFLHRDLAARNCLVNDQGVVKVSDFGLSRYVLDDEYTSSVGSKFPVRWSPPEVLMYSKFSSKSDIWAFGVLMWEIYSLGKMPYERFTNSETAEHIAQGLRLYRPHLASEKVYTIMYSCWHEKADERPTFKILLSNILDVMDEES
- Test Method Notes: BTK cell degradation in Ramos cells (total BTK ELISA)
- Assay type: cell-based
- Experimental Conditions: 16 h incubation, FastScan total BTK ELISA
In this section, each of the molecules is paired with its reported DC50.

These recorded examples may help you get a feel for the data.
Molecule	Test Result
NC(=O)c1c(-c2ccc(Oc3ccccc3)cc2)nn2c1NCC[C@H]2C1CCN(C(=O)CCCc2cn(CCOCCOCCNc3cccc4c3C(=O)N(C3CCC(=O)NC3=O)C4=O)nn2)CC1 (stereo partly drawn)	> 10 µM
NC(=O)c1c(-c2ccc(Oc3ccccc3)cc2)nn2c1NCC[C@H]2C1CCN(C(=O)c2cn(CCOCCNc3cccc4c3C(=O)N(C3CCC(=O)NC3=O)C4=O)nn2)CC1 (stereo partly drawn)	> 10 µM

// next item, DC50 requested
Req: Request: DC50, test system BTK (Homo sapiens), entry NC(=O)c1c(-c2ccc(Oc3ccccc3)cc2)nn2c1NCC[C@H]2C1CCN(C(=O)COCCCCCCCCNC(=O)COc2cccc3c2CN(C2CCC(=O)NC2=O)C3=O)CC1 (stereo partly drawn)
Resp: > 10 µM
